tested on: SK-MEL-5; experiment: NCI tumour cell line growth inhibition, 48 h
The source made the active and inactive calls. No stated cut-off is given here; in the data, active = GI50 up to about 1.1 µM and inactive = higher.

| compound | target_or_test_system | GI50 |
| --- | --- | --- |
| [N-]=[N+]=NC1(c2ccccc2)C(=O)c2cccc3c4ccccc4n(c23)C1=O (stereo not drawn) | SK-MEL-5 | > 100 µM (inactive) |
| COC(C(O)c1ccc2c(c1)OCO2)P(=O)(c1ccccc1)c1ccccc1 (stereo not drawn) | SK-MEL-5 | > 100 µM (inactive) |
| CC1(O)C=CC(=O)C=C1 | SK-MEL-5 | > 55 µM (inactive) |
| O=[N+]([O-])c1ccc(-n2nnc(C3=NCCN3)c2-c2ccccc2)cc1 | SK-MEL-5 | > 100 µM (inactive) |
| COc1c2c(cc3c1C(O)N1CC[C@]34[C@H]3O[C@H]3[C@H](OC)C[C@@H]14)OCO2 (stereo partly drawn) | SK-MEL-5 | 64.6 µM (inactive) |
| COc1cc(I)c2c3c1OC1C34CCN(C)C(C2)C4=CC(I)C1(OC)OC (stereo not drawn) | SK-MEL-5 | 17.1 µM (inactive) |
| Nc1ccn(C2CC3OCC3O2)c(=O)n1 (stereo not drawn) | SK-MEL-5 | > 100 µM (inactive) |
| CC(C)(C)c1ccc(O)c(CN(Cc2cc(C(C)(C)C)ccc2O)C2CCCCC2)c1 | SK-MEL-5 | 15.8 µM (inactive) |
| COc1ccc2c(-c3ccc(O)cc3)c(Oc3ccc(Cl)cc3)c(=O)oc2c1 | SK-MEL-5 | 3.48 µM (inactive) |
| COc1ccc(C(=O)/C=C/S/C(=N/C#N)SC)cc1 | SK-MEL-5 | 21.8 µM (inactive) |
| CCOC(=O)C1CCn2c(nc3c(=O)n(C)c(=O)n(C)c32)S1 (stereo not drawn) | SK-MEL-5 | > 100 µM (inactive) |
| CNC(=O)C(C)C1CCC2(C)C=CC(=O)C(C)=C2C1O (stereo not drawn) | SK-MEL-5 | > 39.6 µM (inactive) |
| C=C(C)C(=O)O[C@H]1CC2=CC(CC(C)=C[C@H]3OC(=O)C(=C)C13)OC2=O (stereo partly drawn) | SK-MEL-5 | 68.2 µM (inactive) |

* * *

system: UACC-62; experiment: NCI tumour cell line growth inhibition, 48 h
Active and inactive are the calls of the source. Rule as the data show it: active = GI50 up to about 1.1 µM and inactive = higher.
experimental_endpoint: GI50

| molecule | target_or_test_system | result |
| --- | --- | --- |
| COc1ccc(-c2cc(O)c3cc4c(cc3n2)OCO4)c(OC)c1 | UACC-62 | 28.3 µM (inactive) |
| N=C(N)SCc1nc(-c2ccc(Cl)cc2)no1 | UACC-62 | 9.79 µM (inactive) |
| C=CCN1C(N)=C(C#N)C(C#N)(C#N)C1CCC (configuration not stated) | UACC-62 | > 100 µM (inactive) |
| CCCCCCCCCCCC(=O)C1=C(O)CCC(O)C1=O (configuration not stated) | UACC-62 | 10.8 µM (inactive) |
| COc1ccc(Cc2cc(OC)c(OC)c(OC)c2)cc1O | UACC-62 | 0.457 µM (active) |
| C=CC(C)(C)c1cc([C@@H]2COc3cc(O)ccc3C2=O)c(O)c(O)c1OC | UACC-62 | 18.1 µM (inactive) |
| Clc1ccc(OCc2nnc3n2N=C(c2ccccc2)CS3)cc1 | UACC-62 | 11.1 µM (inactive) |
